assay: Pharmacokinetic study of tamatinib in rats after oral fostamatinib (UPLC-MS/MS of plasma); format: in vivo, Wistar male rats; conditions: male, Wistar, rat, plasma, po, 12.5 mg/kg

| molecule | half-life (h) |
| --- | --- |
| COc1cc(Nc2ncc(F)c(Nc3ccc4c(n3)NC(=O)C(C)(C)O4)n2)cc(OC)c1OC [Tamatinib, tamatinib] | 18.3 |

###

Test: Pharmacokinetic study of tamatinib in rats after oral fostamatinib (UPLC-MS/MS of plasma)
Type: in vivo, Wistar male rats
Settings: male, Wistar, rat, plasma, po, 12.5 mg/kg
Procedure: The analysis was performed on Waters® Acquity H-Class UPLC® tandem triple quadrupole mass spectrometer (TQD) (Waters, Milford, USA). The H-Class UPLC® system contained Acquity sample manager and Acquity quaternary solvent manager. TQD was equipped with electrospray ionization (ESI) probe. Samples were detected and quantified in multiple reaction monitoring (MRM) mode. […] These parameters were calculated using WinNonlin software (Pharsight Co., Mountain View, CA, USA).
reported endpoint: AUC(0-inf) (µg·h/mL)

| molecule | endpoint value |
| --- | --- |
| COc1cc(Nc2ncc(F)c(Nc3ccc4c(n3)NC(=O)C(C)(C)O4)n2)cc(OC)c1OC | 6.42 |
